The following compounds are listed with their measured IC50 values.
target: 6×His-CRBN-DDB1 protein (Homo sapiens (Human))
Sequence (Q96SW2 whole entry): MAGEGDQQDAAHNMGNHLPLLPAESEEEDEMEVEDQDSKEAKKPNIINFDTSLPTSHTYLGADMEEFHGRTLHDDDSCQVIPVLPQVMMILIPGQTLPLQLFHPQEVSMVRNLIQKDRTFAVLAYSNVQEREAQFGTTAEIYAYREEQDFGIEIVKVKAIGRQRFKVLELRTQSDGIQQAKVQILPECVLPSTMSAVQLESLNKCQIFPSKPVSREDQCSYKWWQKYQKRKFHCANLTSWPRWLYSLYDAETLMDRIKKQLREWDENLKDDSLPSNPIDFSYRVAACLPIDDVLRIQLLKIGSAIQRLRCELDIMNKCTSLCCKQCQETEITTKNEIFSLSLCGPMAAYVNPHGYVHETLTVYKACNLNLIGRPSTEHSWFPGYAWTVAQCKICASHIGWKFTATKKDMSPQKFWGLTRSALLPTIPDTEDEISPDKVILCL
Sequence (Q16531 whole entry partner): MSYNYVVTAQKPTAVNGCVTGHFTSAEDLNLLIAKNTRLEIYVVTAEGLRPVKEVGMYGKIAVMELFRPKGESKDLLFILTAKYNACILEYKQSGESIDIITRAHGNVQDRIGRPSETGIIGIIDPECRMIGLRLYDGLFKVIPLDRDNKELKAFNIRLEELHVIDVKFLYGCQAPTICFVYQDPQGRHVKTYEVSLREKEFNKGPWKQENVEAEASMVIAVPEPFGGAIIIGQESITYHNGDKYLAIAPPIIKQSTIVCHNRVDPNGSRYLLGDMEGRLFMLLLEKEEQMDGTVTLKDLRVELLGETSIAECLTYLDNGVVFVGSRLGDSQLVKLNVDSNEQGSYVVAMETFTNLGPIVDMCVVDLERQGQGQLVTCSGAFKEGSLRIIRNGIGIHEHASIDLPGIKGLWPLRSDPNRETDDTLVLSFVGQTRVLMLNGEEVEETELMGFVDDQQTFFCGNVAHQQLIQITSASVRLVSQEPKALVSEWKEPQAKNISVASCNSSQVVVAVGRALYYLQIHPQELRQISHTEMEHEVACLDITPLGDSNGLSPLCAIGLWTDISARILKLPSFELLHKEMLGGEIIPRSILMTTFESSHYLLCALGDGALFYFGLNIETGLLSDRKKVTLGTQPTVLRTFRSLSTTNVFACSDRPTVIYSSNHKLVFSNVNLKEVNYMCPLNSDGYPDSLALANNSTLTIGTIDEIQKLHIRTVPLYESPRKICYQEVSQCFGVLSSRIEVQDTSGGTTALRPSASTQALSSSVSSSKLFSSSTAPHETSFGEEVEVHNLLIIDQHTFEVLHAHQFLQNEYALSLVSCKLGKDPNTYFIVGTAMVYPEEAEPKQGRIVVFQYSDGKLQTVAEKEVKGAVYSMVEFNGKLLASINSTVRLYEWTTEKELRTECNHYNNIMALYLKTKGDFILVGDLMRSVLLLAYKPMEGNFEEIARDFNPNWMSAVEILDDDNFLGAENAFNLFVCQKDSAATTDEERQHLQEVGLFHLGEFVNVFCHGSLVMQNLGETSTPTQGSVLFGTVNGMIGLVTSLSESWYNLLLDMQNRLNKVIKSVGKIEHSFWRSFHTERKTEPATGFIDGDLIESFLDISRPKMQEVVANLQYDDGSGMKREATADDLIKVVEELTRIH

Previously resolved entries follow.
O=C1CCC(N2Cc3cc(NC(=O)c4cccc(C(F)(F)F)c4)ccc3C2=O)C(=O)N1 (stereo not drawn)    < 1000 nM
CCOc1cc(C)cc(C(=O)Nc2ccc3c(c2)CN(C2CCC(=O)NC2=O)C3=O)c1 (stereo not drawn)    1000 to 10000 nM
O=C1CCC(N2Cc3cc(NC(=O)Cc4ccc(O)cc4)ccc3C2=O)C(=O)N1 (stereo not drawn)    < 1000 nM
NC1(c2ccc(C(=O)Nc3ccc4c(c3)CN(C3CCC(=O)NC3=O)C4=O)cc2)CCC1 (stereo not drawn)    1000 to 10000 nM
O=C1CCC(N2Cc3cc(NC(=O)COc4ccccc4)ccc3C2=O)C(=O)N1 (stereo not drawn)    < 1000 nM

[ask] Which IC50 is reported for this compound? O=C1CCC(N2Cc3cc(NC(=O)c4ccccc4Oc4ccccc4)ccc3C2=O)C(=O)N1 (stereo not drawn)
[reply] < 1000 nM

[ask] Which IC50 is reported for this compound? COc1ccc(C(=O)Nc2ccc3c(c2)CN(C2CCC(=O)NC2=O)C3=O)cc1 (stereo not drawn)
[reply] < 1000 nM

[ask] Which IC50 is reported for this compound? O=C1CCC(N2Cc3cc(Nc4nc5ccccc5s4)ccc3C2=O)C(=O)N1 (stereo not drawn)
[reply] 1000 to 10000 nM

[ask] Which IC50 is reported for this compound? CN(C(=O)c1ccccc1)c1ccc2c(c1)CN(C1CCC(=O)NC1=O)C2=O (stereo not drawn)
[reply] 1000 to 10000 nM

[ask] Which IC50 is reported for this compound? CC(N)c1ccc(C(=O)Nc2ccc3c(c2)CN(C2CCC(=O)NC2=O)C3=O)cc1 (stereo not drawn)
[reply] 1000 to 10000 nM
